System: N. europaea
test description: Whole-cell activity assay, inhibition of ammonia oxidation (nitrite accumulation from 500 µM NH4Cl)
Format: cell-based, Nitrosomonas europaea
experimental parameters: 28°C, full inhibition = lack of sustained nitrite accumulation
Provide the reported Lowest fully inhibitory concentration (I) for ammonia oxidation of each item.
Your answer should be a plain number; it is taken to be in mM.

Name the recorded Lowest fully inhibitory concentration (I) for ammonia oxidation for CCCCCO [Pentanol, 1-pentanol] .
100

Given the entry CCCCCCO [Hexanol, 1-hexanol] , report its measured Lowest fully inhibitory concentration (I) for ammonia oxidation.
20

Report Lowest fully inhibitory concentration (I) for ammonia oxidation for CCCCCCCO [Heptanol, 1-heptanol] please.
17

For CCCCO [Butanol, 1-butanol] , what is its reported Lowest fully inhibitory concentration (I) for ammonia oxidation?
100

What does the record list as Lowest fully inhibitory concentration (I) for ammonia oxidation for CO [Methanol] ?
10

Please look up its Lowest fully inhibitory concentration (I) for ammonia oxidation: CCCO [1-Propanol, 1-propanol]
100

Would you mind telling me what Lowest fully inhibitory concentration (I) for ammonia oxidation value was observed for CCO [Ethanol, ethanol] ?
90

Using the record for CC(C)O [2-Propanol, 2-propanol] , report its Lowest fully inhibitory concentration (I) for ammonia oxidation.
100
